I'd appreciate it if you could supply Dmax values for the items below.
# TESTED_SYSTEM: KRAS G12C protein in NCI-H358 cells (Homo sapiens, UniProt P01116, G12C)
# Construct: endogenous in cells; host or cells: NCI-H358
# Sequence (P01116 1-188 isoform P01116-2 G12C): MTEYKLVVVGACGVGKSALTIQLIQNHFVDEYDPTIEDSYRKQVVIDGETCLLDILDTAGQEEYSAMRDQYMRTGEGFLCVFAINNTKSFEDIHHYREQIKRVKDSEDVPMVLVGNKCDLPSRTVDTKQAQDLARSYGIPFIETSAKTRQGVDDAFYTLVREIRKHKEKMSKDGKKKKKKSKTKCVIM
# ASSAY_EXPLANATION: KRAS degradation assay (Western Blot) in NCI-H358 cells
# Assay type: cell-based
# CONDITIONS: 24 h
Write down the numeric answer in % and omit the unit.

Request the reported Dmax associated with C#Cc1c(F)ccc2cc(O)cc(-c3ncc4c(N(C)[C@H]5C[C@@H]5F)nc(OC[C@H](C)CN5CCN(CC6CCC7(CC6)CCN(C(=O)c6ccc(OC)c(N8CCC(=O)NC8=O)c6)CC7)CC5)nc4c3F)c12 96.3

Fill blank: measured Dmax of the compound [2H]C([2H])([2H])c1ccc(C(=O)N2CCC3(CCC(CN4CCN(C[C@@H](C)COc5nc(N6CCC[C@@](C)(O)C6)c6cnc(-c7cc(O)cc8ccc(F)c(C#C)c78)c(F)c6n5)CC4)CC3)CC2)cc1N1CCC(=O)NC1=O is ____. 100

Data origin, for the record: patent US20260167622A1
